These data points were gathered from PubChem BioAssay.

Kindly supply the reported composite z-score values for the records listed here.
TGT: Neurogenic locus notch homolog protein 3 (Homo sapiens)
ASSAY PROCEDURE: NOTCH3 binders on small-molecule microarray, primary screen, biochemical, 635/667 nm fluorescence (AID 1096)
CONDITION: NOTCH3 binding, 635 nm fluorescence, higher = more signal
Please reply with the number alone, leaving off any unit.

Item "O=C1O[C@H](c2ccccc2)[C@H](c2ccccc2)N2[C@H]1[C@@H](C(=O)NC[C@H](O)c1ccccc1)[C@]1(C(=O)Nc3ccc(C#CCCO)cc31)[C@H]2c1ccc(O)cc1" has what recorded composite z-score?
-0.415

Item C=CC[C@@]1(C(=O)NCC(O)CO)N=C(c2ccc(OCCCO)cc2)O[C@@H]1c1ccccc1N=[N+]=[N-] (stereo not given in full) has what recorded composite z-score?
1.04

Item "CC(=O)Nc1cc(Br)ccc1C(=O)O" has what recorded composite z-score?
0.482

Item "COCCOC(=O)N1C(=O)[C@@]2(c3ccccc31)[C@H](C(=O)NC[C@H](O)c1ccccc1)[C@H]1C(=O)O[C@H](c3ccccc3)[C@H](c3ccccc3)N1[C@@H]2c1ccc(OCCO)cc1" has what recorded composite z-score?
1.04

Item N#Cc1ccc(NN2C(C(O)c3ccc([N+](=O)[O-])cc3)C=CC3C(=O)N(c4ccccc4)C(=O)C32)cc1 (stereo not given) has what recorded composite z-score?
1.06

Item "[N-]=[N+]=NCc1ccccc1[C@H]1OC(c2ccc(OCCCO)cc2)=N[C@@]1(CCS(=O)(=O)c1ccccc1)C(=O)N1CCOCC1" has what recorded composite z-score?
1.1

Item CC(C)c1ccc(NN2C(C(O)c3ccc(N(C)C)cc3)C=CC3C(=O)N(c4ccccc4)C(=O)C32)cc1 (stereo not given) has what recorded composite z-score?
1.03

Item "CN(C)CCCCNC(=O)[C@H]1C[C@H]2C(=O)N[C@@H](Cc3ccccc3)C(=O)N2[C@H]1c1ccc(O)cc1" has what recorded composite z-score?
1.11

Item CCOc1cc(C(O)C2C=CC3C(=O)N(c4ccccc4)C(=O)C3N2Nc2ccc([N+](=O)[O-])cc2)ccc1O (stereo not given) has what recorded composite z-score?
0.782

Item CC(C)c1ccc(NN2C(C(O)c3cccc(O)c3)C=CC3C(=O)N(c4ccccc4)C(=O)C32)cc1 (stereo not given) has what recorded composite z-score?
1.06

Item "CC(C)N1C(=O)[C@@]2(c3ccc([N+](=O)[O-])cc3)CC(=O)N(CC34CC5CC(CC(C5)C3)C4)[C@@H]2c2ccc(CO)cc21" has what recorded composite z-score?
0.272

Item "O=C1O[C@@H](c2ccccc2)[C@@H](c2ccccc2)N2[C@@H](c3ccc(OCCO)cc3)[C@]3(C(=O)Nc4ccccc43)[C@@H](C(=O)Nc3nc4ccccc4s3)[C@H]12" has what recorded composite z-score?
1.11

Item C#CCN(C(/C=C/c1ccccc1)CO)C(C(=O)O)c1ccccc1 (stereo not given) has what recorded composite z-score?
-0.715

Item O=C1OCC=C[C@H]2OC34C=CCN(c5ccc6ccccc6c5)C(=O)[C@H]3N(CCCO)C(=O)[C@@H]4[C@@H]12 (stereo not given in full) has what recorded composite z-score?
0.0404

Item "COCC(=C=CC[C@@H](O)c1ccc(CO)o1)CCO" has what recorded composite z-score?
0.735
